target: water-insoluble glucan producing enzyme (Streptococcus downei, UniProt P27470); construct: endogenous in cells; host or cells: Streptococcus mutans 6715 strain (today S. sobrinus), culture supernatant, ammonium sulfate precipitate, dialyzed; test: Effect of saccharides on formation of water-insoluble glucan from sucrose (Experiment 3); assay type: biochemical, Streptococcus mutans 6715 strain; settings: 1 ml 4 w/v % sucrose plus 1 ml 4 w/v % saccharide, 0.02 units enzyme, 37° C., 16 hours
Sequence (P27470 39-1592): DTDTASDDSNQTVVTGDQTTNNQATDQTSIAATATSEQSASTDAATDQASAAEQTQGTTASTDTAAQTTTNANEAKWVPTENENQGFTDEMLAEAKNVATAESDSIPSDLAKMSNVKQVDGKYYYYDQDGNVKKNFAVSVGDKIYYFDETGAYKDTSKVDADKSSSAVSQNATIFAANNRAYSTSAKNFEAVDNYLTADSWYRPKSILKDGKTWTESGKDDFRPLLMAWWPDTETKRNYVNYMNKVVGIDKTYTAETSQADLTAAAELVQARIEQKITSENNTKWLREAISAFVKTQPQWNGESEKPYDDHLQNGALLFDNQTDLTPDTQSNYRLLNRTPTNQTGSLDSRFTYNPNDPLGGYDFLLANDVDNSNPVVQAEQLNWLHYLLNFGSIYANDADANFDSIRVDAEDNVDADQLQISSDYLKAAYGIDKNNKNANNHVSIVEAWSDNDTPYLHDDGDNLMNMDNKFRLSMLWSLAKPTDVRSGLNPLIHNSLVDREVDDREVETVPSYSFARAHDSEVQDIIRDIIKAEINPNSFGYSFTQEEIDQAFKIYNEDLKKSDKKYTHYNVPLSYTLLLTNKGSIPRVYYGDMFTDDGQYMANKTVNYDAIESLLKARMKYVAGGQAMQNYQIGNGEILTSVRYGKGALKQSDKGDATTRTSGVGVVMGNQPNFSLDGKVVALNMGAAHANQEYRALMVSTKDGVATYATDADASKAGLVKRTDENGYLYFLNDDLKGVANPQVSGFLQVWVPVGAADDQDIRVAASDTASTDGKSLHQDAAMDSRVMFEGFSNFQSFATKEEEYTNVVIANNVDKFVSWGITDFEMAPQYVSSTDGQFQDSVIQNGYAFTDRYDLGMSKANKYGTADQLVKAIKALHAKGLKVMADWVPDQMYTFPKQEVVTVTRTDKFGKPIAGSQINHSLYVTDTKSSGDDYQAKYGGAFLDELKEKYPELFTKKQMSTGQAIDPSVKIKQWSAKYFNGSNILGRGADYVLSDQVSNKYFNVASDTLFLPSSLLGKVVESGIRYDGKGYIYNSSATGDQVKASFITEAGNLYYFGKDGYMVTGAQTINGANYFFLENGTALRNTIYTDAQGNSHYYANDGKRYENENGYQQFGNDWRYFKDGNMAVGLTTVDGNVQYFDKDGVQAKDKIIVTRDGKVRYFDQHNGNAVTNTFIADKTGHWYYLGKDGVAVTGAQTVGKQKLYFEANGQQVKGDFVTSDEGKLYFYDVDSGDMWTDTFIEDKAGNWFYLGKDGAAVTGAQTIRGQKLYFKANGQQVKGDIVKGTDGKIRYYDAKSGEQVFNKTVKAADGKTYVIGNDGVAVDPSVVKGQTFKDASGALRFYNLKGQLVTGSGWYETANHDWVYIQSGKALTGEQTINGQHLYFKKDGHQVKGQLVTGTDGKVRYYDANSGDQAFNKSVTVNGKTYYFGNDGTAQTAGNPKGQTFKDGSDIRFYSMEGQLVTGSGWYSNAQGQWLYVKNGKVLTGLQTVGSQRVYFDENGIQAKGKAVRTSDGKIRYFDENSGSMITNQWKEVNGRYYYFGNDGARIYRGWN
Returns class 1 if the recorded B: inhibition degree on water-insoluble glucan formation is greater than or equal to 5%, and class 0 otherwise.

q: Quick check: does OC[C@H]1O[C@H](O[C@H]2O[C@H](CO)[C@@H](O)[C@H](O)[C@H]2O)[C@H](O)[C@@H](O)[C@@H]1O have B: inhibition degree on water-insoluble glucan formation greater than or equal to 5%?
a: class 0

q: Next record, please: O=C(CO)[C@@H](O)[C@H](O)[C@@H](O)CO
a: class 1

q: Quick one: C[C@@H]1OC(O)[C@H](O)[C@H](O)[C@H]1O (some centres unmarked)
a: class 0

q: Note, next up: CO[C@H]1O[C@H](CO)[C@@H](O)[C@H](O)[C@H]1O
a: class 1
